ASSAY_TARGET: T1, human G-CSF receptor (human, UniProt Q99062 25-836)
T1 sequence (looked up): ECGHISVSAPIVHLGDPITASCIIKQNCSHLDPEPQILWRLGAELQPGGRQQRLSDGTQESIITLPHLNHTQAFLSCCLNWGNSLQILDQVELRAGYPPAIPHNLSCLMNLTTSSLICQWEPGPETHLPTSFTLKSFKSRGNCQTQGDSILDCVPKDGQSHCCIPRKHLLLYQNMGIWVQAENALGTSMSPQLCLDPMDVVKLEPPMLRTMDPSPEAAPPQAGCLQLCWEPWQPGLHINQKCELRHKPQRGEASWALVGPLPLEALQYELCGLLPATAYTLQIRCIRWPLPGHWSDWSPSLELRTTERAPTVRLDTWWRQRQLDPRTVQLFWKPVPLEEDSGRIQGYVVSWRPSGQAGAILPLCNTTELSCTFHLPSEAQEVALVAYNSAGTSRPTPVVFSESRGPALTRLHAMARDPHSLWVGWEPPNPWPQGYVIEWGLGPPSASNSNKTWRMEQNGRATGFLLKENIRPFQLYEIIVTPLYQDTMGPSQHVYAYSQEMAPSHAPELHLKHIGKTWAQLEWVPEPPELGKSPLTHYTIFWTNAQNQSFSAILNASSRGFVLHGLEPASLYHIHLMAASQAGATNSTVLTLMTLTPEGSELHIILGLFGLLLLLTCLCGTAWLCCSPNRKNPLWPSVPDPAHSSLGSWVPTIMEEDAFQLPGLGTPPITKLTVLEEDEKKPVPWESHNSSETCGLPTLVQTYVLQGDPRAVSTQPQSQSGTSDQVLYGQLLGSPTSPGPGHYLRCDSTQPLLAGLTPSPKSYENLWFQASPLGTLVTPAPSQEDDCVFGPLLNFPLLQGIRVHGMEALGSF
METHOD_SUMMARY: cell-based or functional assay
MEASURED_PROPERTY: EC50(% of hG-CSF) conjugated to SPA-PEG 20000

# example entries with known answers
BINDER	EXPERIMENTAL_VALUE
G-CSF variant K16/34/40R Q90K T105K S159K conjugated to SPA-PEG 20000 (ligand, conjugated to SPA-PEG 20000) TPLGPASSLPQSFLLRCLEQVRKIQGDGAALQERLCATYRLCHPEELVLLGHSLGIPWAPLSSCPSQALQLAGCLSQLHSGLFLYQGLLKALEGISPELGPTLDKLQLDVADFATTIWQQMEELGMAPALQPTQGAMPAFASAFQRRAGGVLVASHLQKFLEVSYRVLRHLAQP	< 1 % of hG-CSF
G-CSF variant K16/34/40R conjugated to SPA-PEG 20000 (ligand, conjugated to SPA-PEG 20000) TPLGPASSLPQSFLLRCLEQVRKIQGDGAALQERLCATYRLCHPEELVLLGHSLGIPWAPLSSCPSQALQLAGCLSQLHSGLFLYQGLLQALEGISPELGPTLDTLQLDVADFATTIWQQMEELGMAPALQPTQGAMPAFASAFQRRAGGVLVASHLQSFLEVSYRVLRHLAQP	1 % of hG-CSF
G-CSF variant K16/34/40R Q90K T105K conjugated to SPA-PEG 20000 (ligand, conjugated to SPA-PEG 20000) TPLGPASSLPQSFLLRCLEQVRKIQGDGAALQERLCATYRLCHPEELVLLGHSLGIPWAPLSSCPSQALQLAGCLSQLHSGLFLYQGLLKALEGISPELGPTLDKLQLDVADFATTIWQQMEELGMAPALQPTQGAMPAFASAFQRRAGGVLVASHLQSFLEVSYRVLRHLAQP	< 1 % of hG-CSF
G-CSF variant K16/34/40R T105K S159K conjugated to SPA-PEG 20000 (ligand, conjugated to SPA-PEG 20000) TPLGPASSLPQSFLLRCLEQVRKIQGDGAALQERLCATYRLCHPEELVLLGHSLGIPWAPLSSCPSQALQLAGCLSQLHSGLFLYQGLLQALEGISPELGPTLDKLQLDVADFATTIWQQMEELGMAPALQPTQGAMPAFASAFQRRAGGVLVASHLQKFLEVSYRVLRHLAQP	5 % of hG-CSF

// moving on: another record for EC50(% of hG-CSF) conjugated to SPA-PEG 20000
Form: binder = G-CSF variant K16/34/40R Q90K conjugated to SPA-PEG 20000 (ligand, conjugated to SPA-PEG 20000) TPLGPASSLPQSFLLRCLEQVRKIQGDGAALQERLCATYRLCHPEELVLLGHSLGIPWAPLSSCPSQALQLAGCLSQLHSGLFLYQGLLKALEGISPELGPTLDTLQLDVADFATTIWQQMEELGMAPALQPTQGAMPAFASAFQRRAGGVLVASHLQSFLEVSYRVLRHLAQP ; EC50(% of hG-CSF) conjugated to SPA-PEG 20000 = 7 % of hG-CSF

Each recorded value in this set is attributed to patent US20030118612A1.
